details: acidic group
So I've got a bunch of molecules here, and I need their pKa values.
Numbers only.

1. O=C(O)c1ccc2[nH]ccc2c1 : 4.1

Need pKa for each of these molecules.
1. CCCCOC(=S)NC(C)=O
2. O=S(=O)(Nc1ccc(Cl)cc1)C(F)(F)F
3. C/C=C/C=C/C(=O)O

1: 9.25; 2: 3.9; 3: 4.53

---

settings: basic group
Param threshold (1) applies to pKa; output y when value >= threshold, n when value < threshold.

Example results:
1. CON : y
2. CN([NH3+])C(N)=S : y
3. Brc1ccccn1 : n
4. Cn1cnc2c1C(=O)c1ncnc([O-])c1C2=O : y
5. NC1=NS(=O)(=O)Nc2nc[nH]c21 : n

API: above_or_equal(metric=pKa, cutoff=1) for item CC(C)c1cccnc1
y

CN(C)c1ccc(/C=N/c2ncc3[nH+]c[nH]c3n2)cc1 ?
y

O=C([O-])[C@@H]1Cc2[nH]cnc2C[NH2+]1 ?
y

---

settings: basic group
Param threshold (9) applies to pKa; output yes (1) when value >= threshold, no (0) when value < threshold.

Example results:
1. O=C1NCCN1 : no (0)
2. CCC(C)(C)NC(C)(C)CC : yes (1)
3. NC(=O)Nc1ncnc2nc[nH]c12 : no (0)

API: above_or_equal(metric=pKa, cutoff=9) for item Cc1ccc2c(c1)c1c3n2CCN=C3CCC1
no (0)

Cc1nnc(N)nc1C ?
no (0)

c1ccc(CNc2ncnc3[nH]ncc23)cc1 ?
no (0)

CN(C)c1ccc2nc3ccc(N)cc3nc2c1 ?
no (0)

O/C(=C/c1cccnc1)c1ccccc1 ?
no (0)

CCNN ?
no (0)

Cc1ccc(OC(=O)CCCN(C)C)cc1 ?
yes (1)

---

settings: basic group
ASSAY_ENDPOINT: pKa
Give bare numbers.

For orientation, consider the following solved cases.
1) CCCCCCCCCCCCCCCC(=O)N[C@@H](Cc1c[nH]cn1)C(=O)[O-] : 6.2
2) CCCCCCCCCCN(CCO)CC(C)O (stereo unspecified) : 7.5
3) CC1CN(C)CC[NH+]1C (stereo unspecified) : 3.93

Need pKa for each of these molecules.
1. CCN(C)N(C)CC
2. SCCNCc1cccs1
3. COCCN(C)c1ccccc1
4. Cc1ccc(N)cc1Cl
5. C[C@H]1C[C@@]23[C@@H]4CCCN2CCC[C@H]3[C@@H](O)C[C@H]4C1=O
6. Cc1cc(N)nc2c1ccc1ccccc12
7. Oc1ccc2ccncc2c1
8. Cc1nc[nH]c1C

[6.8, 8.93, 4.81, 4.05, 9.13, 6.02, 5.7, 8.19]

Need pKa for each of these molecules.
1. CC/N=c1\sc(-c2ccccc2)nn1CC
2. CC1CN(C)CCN1C (stereo unspecified)
3. CC(C)N/C=[NH+]/c1ccc(-c2cncn2C)cc1
4. Cc1ncc(CO)c(C[NH3+])c1O
5. Cc1n[nH]c2c(N)ncnc12

1: 6.7; 2: 8.36; 3: 6.51; 4: 3.38; 5: 5.02

Need pKa for each of these molecules.
1. Cc1cc(-n2[nH+]c(C)cc2C)[nH]n1
2. CCOC(=O)Nc1ncnc2nc[nH]c12
3. CN(C)c1ccc(C2CN3CCC2CC3)cc1 (stereo unspecified)
4. N[C@H]1C[C@@H]1N
5. O=C1CC2OCC=C3C4CC5N(CCC56c5ccccc5N1C6C24)[C@H]3S(=O)(=O)[O-] (stereo partly specified)
6. CCCN(C)c1ccccc1

-2.4
2.4
10.3
8.82
3.2
5.67

Need pKa for each of these molecules.
1. CN(c1ccccc1)C1CCCCC1
2. Nc1ncc(S(=O)(=O)c2ccccc2)s1
3. CN(CC[NH+](C)C)c1ccnc2cccc([N+](=O)[O-])c12
4. Nc1ccc(/N=N/c2ccccc2)cc1
5. OC(CN1CCOCC1)CN1CCOCC1
6. Cc1ccc(N=C2C=CC(=N)C=C2)c(N)c1
7. CC1CCCC(C)(C)N1 (stereo unspecified)

[6.35, 1.79, 4.86, 2.82, 6.98, 4.2, 11.3]

FYI, the data here is from the pKa sets of Baltruschat and Czodrowski (2020).
